- Tested on: OVCAR-4
- assayNotes: NCI tumour cell line growth inhibition, 48 h
Active and inactive are the calls of the source. Cut-off read from the data, not from the text of the source: active = GI50 up to about 1.1 µM and inactive = higher.
Give GI50 for every item shown.

Answered examples (2):
Problem: # get_value(readout='GI50', item= C=CCC(C(=O)OC)C1(C(=O)OC)c2[nH]c3ccccc3c2CCN1Cc1ccccc1 (centres undefined) )
Solution: 20.2 µM (inactive)

Problem: Endpoint output: GI50 of "CCN(CC)CCSc1c2ccccc2nc2cc(NCC(=O)Nc3ccccc3-c3ccccc3NC(=O)CNc3ccc4c(SCCN(CC)CC)c5ccccc5nc4c3)ccc12" . Value?
Solution: > 88.9 µM (inactive)

Hi! Can you tell me GI50 for each of these compounds?
1. O=C1CCC[C@]2(CCCC(=O)N2)C1
2. [O-][S+]1CSSC1
3. O=C1CCCC2C3CC(CN12)C1CCCCN1C3.[O-][Cl+3]([O-])([O-])O (centres undefined)
4. C[N+](C)(C)CCN(Cc1cccs1)c1ccccn1
5. [O-][S+](C(c1ccccc1)=P(c1ccccc1)(c1ccccc1)c1ccccc1)c1ccc(Cl)cc1 (centres undefined)
6. C#CCN(Cc1ccc2nc(-c3ccccc3)c(N)nc2c1)c1cc(OC)c(OC)c(OC)c1
7. c1cc2nnc1SCCSCCCSCCS2

Solution:
["> 100 µM (inactive)", "16.7 µM (inactive)", "> 100 µM (inactive)", "> 100 µM (inactive)", "17.1 µM (inactive)", "27.9 µM (inactive)", "34.6 µM (inactive)"]

The reported measurements were obtained from ChEMBL document CHEMBL1201862.
